measurement-protocol: Toxicity in colon 26 tumor-bearing CD2F1 mouse assessed as lethality at 200 mg/kg
Type: organism-based
Parameters: dose 200 mg/kg
experimental-setup: in vivo, read-out: Activity

{"smiles-code": "Cn1cc(C(N)=O)c(Nc2ccc(I)cc2F)cc1=O", "mortality / %": 100}

###

measurement-protocol: Toxicity in colon 26 tumor-bearing CD2F1 mouse assessed as lethality at 100 mg/kg
Format: organism-based
Parameters: dose 100 mg/kg
experimental-setup: in vivo, read-out: Activity

{"smiles-code": "Cn1cc(C(N)=O)c(Nc2ccc(I)cc2F)cc1=O", "mortality": "40%"}
